Tested on: C. parapsilosis
Test: Minimum inhibitory concentration, RPMI medium
Type: cell-based
Conditions: banded MIC grade
Would you mind telling me the reported MIC grade, C. PARAPSILOSIS, RPMI media of each entry?

Answered examples (6):
[
  {
    "ENTRY SMILES": "CCC(=O)OCC1=NN=C(N)SC1",
    "TARGET OR TEST SYSTEM": "C. parapsilosis",
    "EXPERIMENTAL READOUT": "MIC grade, C. PARAPSILOSIS, RPMI media",
    "RESULT": "3 (3: 1-5 mg/L)"
  },
  {
    "ENTRY SMILES": "NC1=NN=C(CCCCOCc2cccc(Oc3ccccc3)c2)CS1",
    "TARGET OR TEST SYSTEM": "C. parapsilosis",
    "EXPERIMENTAL READOUT": "MIC grade, C. PARAPSILOSIS, RPMI media",
    "RESULT": "3 (3: 1-5 mg/L)"
  },
  {
    "ENTRY SMILES": "NC1=NN=C(CCCCOCc2cccc(-c3ccccc3)c2)CS1",
    "TARGET OR TEST SYSTEM": "C. parapsilosis",
    "EXPERIMENTAL READOUT": "MIC grade, C. PARAPSILOSIS, RPMI media",
    "RESULT": "2 (2: 5-20 mg/L)"
  },
  {
    "ENTRY SMILES": "NC1=NN=C(CCCCCCOc2ccccc2)CS1",
    "TARGET OR TEST SYSTEM": "C. parapsilosis",
    "EXPERIMENTAL READOUT": "MIC grade, C. PARAPSILOSIS, RPMI media",
    "RESULT": "4 (4: <1 mg/L)"
  },
  {
    "ENTRY SMILES": "COc1ccc(C2=NN=C(N)SC2)cc1",
    "TARGET OR TEST SYSTEM": "C. parapsilosis",
    "EXPERIMENTAL READOUT": "MIC grade, C. PARAPSILOSIS, RPMI media",
    "RESULT": "1 (1: ≥20 mg/L)"
  },
  {
    "ENTRY SMILES": "COc1ccc(COCCCCC2=NN=C(N)SC2)cc1",
    "TARGET OR TEST SYSTEM": "C. parapsilosis",
    "EXPERIMENTAL READOUT": "MIC grade, C. PARAPSILOSIS, RPMI media",
    "RESULT": "2 (2: 5-20 mg/L)"
  }
]

Please go through the list and note MIC grade, C. PARAPSILOSIS, RPMI media for each compound.
1. CCCCOC(=O)c1ccc(C2=NN=C(N)SC2)cc1
2. NC1=NN=C(c2ccc3ccccc3c2)CS1
3. Cc1ccc(OCCC2=NN=C(N)SC2)cc1
4. NC1=NN=C(CCOCc2ccc(-c3ccccc3)cc2)CS1
5. CC(C)c1ccc(C2=NN=C(N)SC2)cc1

Solution:
1: 1 (1: ≥20 mg/L); 2: 1 (1: ≥20 mg/L); 3: 4 (4: <1 mg/L); 4: 2 (2: 5-20 mg/L); 5: 1 (1: ≥20 mg/L)

Please go through the list and note MIC grade, C. PARAPSILOSIS, RPMI media for each compound.
1. Cc1cccc(COCCCCC2=NN=C(N)SC2)c1
2. N#Cc1ccc(COCCC2=NN=C(N)SC2)cc1

Solution:
1. 3 (3: 1-5 mg/L)
2. 2 (2: 5-20 mg/L)

Please go through the list and note MIC grade, C. PARAPSILOSIS, RPMI media for each compound.
1. NC1=NN=C(CC(=O)OCc2ccccc2)CS1
2. COc1cccc(C2=NN=C(N)SC2)c1
3. CCCCc1cccc(COCCCCC2=NN=C(N)SC2)c1

Solution:
2 (2: 5-20 mg/L)
1 (1: ≥20 mg/L)
2 (2: 5-20 mg/L)

Please go through the list and note MIC grade, C. PARAPSILOSIS, RPMI media for each compound.
1. NC1=NN=C(CCCCOCc2ccc(F)cc2)CS1
2. CCOC(=O)CC1=NN=C(N)SC1
3. NC1=NN=C(CCCCOCc2ccc(F)cc2F)CS1

Solution:
1: 2 (2: 5-20 mg/L); 2: 3 (3: 1-5 mg/L); 3: 4 (4: <1 mg/L)

Values compiled from patent US20180201592A1.
